*1 amine or outer side, *2 acyl side, *3 side chain or, on linkers, in order; H or OH if unused. Where a SMILES comes first, the peptide text is derived from it. Bridges are numbered along the chain shown (N, C = ends). [ ]: non-standard residue; d: D form. The star is where a group is joined. 6FAM = O=C1OC2(c3ccc(O)cc3Oc3cc(O)ccc32)c2cc(C(=O)*)ccc21; X4 = O=C(CC1(S[*:2])CCCCC1)[*:1]; X1 = O=C([C@@H](O)CS[*:2])[*:1]; Orn = NCCC[C@H](N)C(=O)O
// pKi collected for Oxytocin receptor (Homo sapiens)
The read-out pKi is expressed as -log10 of concentration in moles per litre.

The examples below pair each entry with its known result.
Molecule: CC[C@H](C)[C@@H]1NC(=O)[C@H](Cc2ccc(O)cc2)NC(=O)[C@@H](O)CSSC[C@@H](C(=O)N2CCC[C@H]2C(=O)N[C@@H](CCCNC(=O)c2ccc3c(c2)C2(OC3=O)c3ccc(O)cc3Oc3cc(O)ccc32)C(=O)NCC(N)=O)NC(=O)[C@H](CC(N)=O)NC(=O)[C@H](CCC(N)=O)NC1=O (YIQNCP[Orn](6FAM)G-NH2; linker N-5 via X1)
Study target: Oxytocin receptor (Homo sapiens)
Sequence (P30559 whole entry): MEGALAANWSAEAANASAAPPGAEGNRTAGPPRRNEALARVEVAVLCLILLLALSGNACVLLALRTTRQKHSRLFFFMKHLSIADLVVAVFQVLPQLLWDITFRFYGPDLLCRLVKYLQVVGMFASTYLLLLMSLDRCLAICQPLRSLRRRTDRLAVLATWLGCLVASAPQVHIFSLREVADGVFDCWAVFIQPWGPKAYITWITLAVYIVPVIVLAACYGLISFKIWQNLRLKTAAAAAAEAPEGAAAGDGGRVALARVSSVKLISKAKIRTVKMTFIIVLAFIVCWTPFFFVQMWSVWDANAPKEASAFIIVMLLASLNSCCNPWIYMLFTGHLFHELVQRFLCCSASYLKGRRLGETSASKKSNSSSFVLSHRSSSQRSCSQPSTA
Reported: 9.74
//
Molecule: CC[C@H](C)[C@@H]1NC(=O)[C@@H](Cc2ccc(O)cc2)NC(=O)CC2(CCCCC2)SSC[C@@H](C(=O)N2CCC[C@H]2C(=O)N[C@@H](CCCNC(=O)c2ccc3c(c2)C2(OC3=O)c3ccc(O)cc3Oc3cc(O)ccc32)C(=O)O)NC(=O)[C@H](CC(N)=O)NC(=O)[C@H]([C@@H](C)O)NC1=O
Study target: Oxytocin receptor (Homo sapiens)
Reported: 6.90

API: the following record is the query input.
Data request: pKi for CC[C@H](C)[C@@H]1NC(=O)[C@H](Cc2ccc(OC)cc2)NC(=O)CC2(CCCCC2)SSC[C@@H](C(=O)N2CCC[C@H]2C(=O)N[C@@H](CCCN)C(=O)N[C@@H](Cc2ccc(O)cc2)C(N)=O)NC(=O)[C@H](CC(N)=O)NC(=O)[C@H]([C@@H](C)O)NC1=O (Y(Me)ITNCP[Orn]Y-NH2; linker N-5 via X4) ?
Data returned: 9.68

###

Target: Oxytocin receptor (Homo sapiens)
*1 amine or outer side, *2 acyl side, *3 side chain or, on linkers, in order; H or OH if unused. Where a SMILES comes first, the peptide text is derived from it. Bridges are numbered along the chain shown (N, C = ends). [ ]: non-standard residue; d: D form. The star is where a group is joined. 6FAM = O=C1OC2(c3ccc(O)cc3Oc3cc(O)ccc32)c2cc(C(=O)*)ccc21; X1 = O=C([C@@H](O)CS[*:2])[*:1]; Orn = NCCC[C@H](N)C(=O)O; Mpa = O=C(O)CCS
Observable: pKi
The read-out pKi is expressed as -log10 of concentration in moles per litre.

The examples below pair each entry with its known result.
Compound: CC[C@H](C)[C@@H]1NC(=O)[C@H](Cc2ccc(O)cc2)NC(=O)CCSSC[C@@H](C(=O)N2CCC[C@H]2C(=O)N[C@@H](CCCNC(=O)c2ccc3c(c2)C2(OC3=O)c3ccc(O)cc3Oc3cc(O)ccc32)C(=O)NCC(N)=O)NC(=O)[C@H](CC(N)=O)NC(=O)[C@H](CCC(N)=O)NC1=O ([Mpa]YIQNCP[Orn](6FAM)G-NH2; disulfide 1-6)
Study target: Oxytocin receptor (Homo sapiens)
Observable: pKi
Reported: 9.60
//
Compound: CC[C@H](C)[C@@H]1NC(=O)[C@H](Cc2ccc(O)cc2)NC(=O)[C@@H](O)CSSC[C@@H](C(=O)N2CCC[C@H]2C(=O)N[C@@H](CCCCNC(=O)c2ccc3c(c2)C2(OC3=O)c3ccc(O)cc3Oc3cc(O)ccc32)C(=O)NCC(N)=O)NC(=O)[C@H](CC(N)=O)NC(=O)[C@H](CCC(N)=O)NC1=O (YIQNCPK(6FAM)G-NH2; linker N-5 via X1)
Study target: Oxytocin receptor (Homo sapiens)
Observable: pKi
Reported: 9.47

API: the following record is the query input.
Data request: pKi for CC[C@H](C)[C@@H]1NC(=O)[C@H](Cc2ccc(O)cc2)NC(=O)CCSSC[C@@H](C(=O)N2CCC[C@H]2C(=O)N[C@@H](CCCCNC(=O)c2ccc3c(c2)C2(OC3=O)c3ccc(O)cc3Oc3cc(O)ccc32)C(=O)NCC(N)=O)NC(=O)[C@H](CC(N)=O)NC(=O)[C@H](CCC(N)=O)NC1=O ([Mpa]YIQNCPK(6FAM)G-NH2; disulfide 1-6) ?
Data returned: 9.54
